Target: human glucagon-like peptide 1 receptor (human, UniProt P43220 24-463)
Assay: cell-based or functional assay
Where no end group is shown, it is not given here. [ ]: non-standard residue; d: D form. Aib = CC(C)(N)C(=O)O
Readout Label: hGLP-1R CRE Luc EC50 (pM)
Numbers only, in pM.

INSERT INTO results (binder, result_unit, result_number) VALUES
  ('H[Aib]HGTFTSDYSILLEKQAA[Aib]EFVQWLLEGGPSSGAPPPS-NH2 (not fully specified (residue 16); printed as H-Aib-HGTFTSDYSILLE-K[2-[2-[2-[[2-[2-[2-[[(4S)-4-carboxy-4-(19-carboxynonadecanoylamino)butanoyl]amino]ethoxy]ethoxy]acetyl]amino]ethoxy]ethoxy]acetyl]-QAA-Aib-EFVQWLLEGGPSSGAPPPS-NH2) [Compound No. 45]', 'pM', 2.4),
  ('Y[Aib]QGTFTSDYSIYLEKQAA[Aib]EFVNWLLAGGPSSGAPPPS-NH2 (not fully specified (residue 16); printed as Y-Aib-QGTFTSDYSIYLE-K[2-[2-[2-[[2-[2-[2-[[(4S)-4-carboxy-4-(19-carboxynonadecanoylamino)butanoyl]amino]ethoxy]ethoxy]acetyl]amino]ethoxy]ethoxy]acetyl]-QAA-Aib-EFVNWLLAGGPSSGAPPPS-NH2) [Compound No. 15]', 'pM', 1.4),
  ('Y[Aib]QGTFTSDYSIYLEKQAA[Aib]EFVQWLLEGGPSSGAPPPS-NH2 (not fully specified (residue 16); printed as Y-Aib-QGTFTSDYSIYLE-K[2-[2-[2-[[2-[2-[2-[[(4S)-4-carboxy-4-(19-carboxynonadecanoylamino)butanoyl]amino]ethoxy]ethoxy]acetyl]amino]ethoxy]ethoxy]acetyl]-QAA-Aib-EFVQWLLEGGPSSGAPPPS-NH2) [Compound No. 16]', 'pM', 3.1),
  ('H[Aib]HGTFTSDYSILLEKQAAEEFVQWLLEGGPSSGAPPPS-NH2 (not fully specified (residue 16); printed as H-Aib-HGTFTSDYSILLE-K[(2S)-2-amino-6-[[(2S)-2-amino-6-[[(4S)-4-carboxy-4-(19-carboxynonadecanoylamino)butanoyl]amino]hexanoyl]amino]hexanoyl]-QAAEEFVQWLLEGGPSSGAPPPS-NH2) [Compound No. 49]', 'pM', 1.4);

Shift focus to the following entry.
Entry Y[Aib]QGTFTSDYSIYLDKQAA[Aib]EFVNWLLAGGPSSGAPPPS-NH2 (not fully specified (residue 16); printed as Y-Aib-QGTFTSDYSIYLD-K[2-[2-[2-[[2-[2-[2-[[(4S)-4-carboxy-4-[[4-[(19-carboxynonadecanoylamino) methyl]cyclohexanecarbonyl]amino]butanoyl]amino]ethoxy ]ethoxy]acetyl]amino]ethoxy]ethoxy]acetyl]-QAA-Aib-EFVNWLLAGGPSSGAPPPS-NH2) [Compound No. 6] ; hGLP-1R CRE Luc EC50 (pM) = 5.1

Data credit: patent US20230391845A1
